- PROCEDURE SUMMARY: mitochondrial membrane potential change in A549 cells, profiling panel, cell-based, JC-1 fluorescence, basal, 24 h, 100 nL (AID 1138);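 also: A549 lung adenocarcinoma cells under basal conditions with no added stimulus; test concentration not given here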
- COND: higher = more signal
OBSERVED PROPERTY: z-score
One number for each entry.

// solved cases for z-score follow
CCCNC(=O)OC[C@H]1O[C@H](CCON=C(C)CCN2CCc3nc(CC)c(CC)cc3C2)C=C[C@@H]1Oc1ccc(OC)cc1; 0.77
CC(C)=CCCC(C)=CCON=C1C[C@@H](O)[C@@H](O)[C@@H]2[C@@H]3C(=O)N(C[C@@H]4CCCO4)C(=O)[C@@H]3CC[C@H]12; -0.773
Cc1cc2c(nc1C)CCCCN2CC(C)ON=C1[C@H]2CCn3c(=O)n(-c4ccccc4)c(=O)n3[C@H]2[C@H](O)[C@@H]2O[C@H]12 (stereo partly drawn); -0.196
COC(=O)[C@@H]1CC[C@H](C)[C@@H](c2ccc(C)cc2)N1C(=O)c1ccc(C=NO[C@@H](C)c2cn([C@H](CO)Cc3ccccc3)nn2)cc1; 1.04

Answer for every listed entry: what is its z-score? The entries follow.
1. C=CC1=C[C@H](O)[C@@H]2O[C@@H]2C12OCCCO2
2. CO[C@H]1COC(=O)CC=C[C@H](C)COC(=O)[C@@H](C)NC(=O)CC=C[C@@H]1C

**A:**
1. -0.722
2. -1.61

Answer for every listed entry: what is its z-score? The entries follow.
1. CON=C[C@@H](NS(=O)(=O)c1ccc(C)cc1)[C@H](C)C=CCC(=O)OC
2. COC(=O)CC=C[C@@H](C)[C@@H](C=NOC[C@H]1O[C@H](c2ccccc2)C=C[C@@H]1Oc1ccc(OC)cc1)OC

**A:**
1. 0.764
2. 0.0691
